Each recorded value in this set is attributed to PubChem BioAssay (NCI).

Listed compounds paired with reported log10(TGI)
# Test system: U251 CNS
# PROCEDURE SUMMARY: NCI tumour cell line growth inhibition, 48 h
Please be aware that the numbers have been log10-transformed from TGI in µM.

Please review the following examples before continuing.
Q: For the record CC(=O)Oc1c2c(c(OC(C)=O)c3c1n(C(C)=O)c1ccccc1n3C(C)=O)n(C(C)=O)c1ccccc1n2C(C)=O , what value of log10(TGI) is listed for U251 CNS?
Ans: 1.47

Q: For the record Cc1ccc(NC(=O)C(=O)C(C(=O)c2ccc3ccccc3c2)C2OC(=O)c3ccccc32)c(C)c1 (configuration not stated) , what value of log10(TGI) is listed for U251 CNS?
Ans: 1.24

Q: For the record C=C1C(=O)O[C@H]2[C@H]1CC/C(Cn1cc(Cc3c[nH]c4ccccc34)nn1)=C\CC[C@@]1(C)O[C@@H]21 , what value of log10(TGI) is listed for U251 CNS?
Ans: 0.56

Q: For the record CC(=O)OC12CC(C(F)(F)F)(C(F)(F)F)OC1(OC(C)=O)CC(C(F)(F)F)(C(F)(F)F)O2 (configuration not stated) , what value of log10(TGI) is listed for U251 CNS?
Ans: 1.28

Q: For the record C=C1C(=O)O[C@H]2[C@H]1CC/C(COC(=O)c1cn(C)c3ccccc13)=C\CC[C@@]1(C)O[C@@H]21 , what value of log10(TGI) is listed for U251 CNS?
Ans: 0.44

Q: For the record Oc1[nH]c(N=C2N=c3ccccc3=N2)c2ccccc12 , what value of log10(TGI) is listed for U251 CNS?
Ans: 1.63

Next:
Q: For the record CCNC(=O)NNc1ncnc2c1c(-c1ccc(Cl)cc1)cn2-c1ccc(C)cc1 , what value of log10(TGI) is listed for U251 CNS?
Ans: 1.50

Q: For the record Oc1cc(O)c2c(c1)O[C@H](c1cc(O)c(O)c(O)c1)[C@@H](O)C2 , what value of log10(TGI) is listed for U251 CNS?
Ans: 1.54

Q: For the record COc1cccc(OC(=O)c2ccc(C(F)(F)F)nc2Nc2c(C)cccc2Cl)c1 , what value of log10(TGI) is listed for U251 CNS?
Ans: 1.61

Q: For the record C/C=C/c1cc2c(c(=O)o1)C(=O)[C@@H](O)[C@H](C)O2 , what value of log10(TGI) is listed for U251 CNS?
Ans: 1.52

Q: For the record COC12C=C/C(=C(/C(=O)OCCSc3ccnn3C)C(=O)CCCCCCCCC3(OC)C=C/C(=C(/C(=O)OCCSc4ccnn4C)C(=O)CCCCCCCC1)O3)O2 , what value of log10(TGI) is listed for U251 CNS?
Ans: 0.52

Q: For the record N#C/C=c1/c2ccccc2n2nc3ccccc3c12 , what value of log10(TGI) is listed for U251 CNS?
Ans: 1.49

Q: For the record C/C(=N/NC(=S)Nc1cccc(Cl)c1)c1ccccn1 , what value of log10(TGI) is listed for U251 CNS?
Ans: 0.92

Q: For the record Cn1cnc([N+](=O)[O-])c1Sc1nnnn1C , what value of log10(TGI) is listed for U251 CNS?
Ans: 1.53

Q: For the record CCCCC[C@H]1CC=C2C(=O)C=C[C@@H]2CC=CCCCC(=O)O[C@@H](CCCCC)CC=C2C(=O)C=C[C@@H]2CC=CCCCC(=O)O[C@@H](CCCCC)CC=C2C(=O)C=C[C@@H]2CC=CCCCC(=O)O1 , what value of log10(TGI) is listed for U251 CNS?
Ans: -0.50
